Consider the following compounds and their measured ED50 Stomach Carcinoma Hs 746 T readings.
# System: Hs 746 T stomach carcinoma cell line
# Protocol Notes: MTT cytotoxicity assay, Hs 746 T
# Type: cell-based, human
# Condition Info: 6 days incubation, 50% reduction of absorbance vs untreated controls, mean of 2 observations
Just the number in µg/mL, nothing appended.

Previously resolved entries follow.
[
  {
    "Compound": "CC1(C)C[C@H]2C3=CC[C@@H]4[C@@]5(C)CC[C@H](O[C@@H]6O[C@H](C(=O)O)[C@@H](O)[C@H](O)[C@H]6O[C@@H]6O[C@H](CO)[C@H](O)[C@H](O)[C@H]6O)[C@](C)(CO)[C@@H]5CC[C@@]4(C)[C@]3(C)CC[C@@]2(C)[C@H](O[C@@H]2OC[C@H](O)[C@H](O[C@@H]3O[C@H](CO)[C@@H](O)[C@H](O)[C@H]3O)[C@H]2O)[C@@H]1O [Compound 15, reference compound]",
    "Quantitative Result": 3.22
  },
  {
    "Compound": "COc1ccc(-c2coc3cc(OC4OC(COC(C)=O)[C@@H](O)C(O)C4OC(C)=O)ccc3c2=O)cc1 (stereo partly drawn) [Compound 3]",
    "Quantitative Result": 8.89
  },
  {
    "Compound": "C[C@@H]1O[C@@H](O[C@H]2[C@H](O[C@@H]3CC(C)(C)C[C@H]4C5=CC[C@@H]6[C@@]7(C)CC[C@H](O[C@@H]8O[C@H](C(=O)O)[C@@H](O)[C@H](O)[C@H]8O[C@@H]8O[C@H](CO)[C@H](O)[C@H](O)[C@H]8O[C@@H]8O[C@@H](C)[C@H](O)[C@@H](O)[C@H]8O)[C@@](C)(CO)[C@@H]7CC[C@@]6(C)[C@]5(C)CC[C@@]34C)OC[C@H](O)[C@@H]2O)[C@H](O)[C@H](O)[C@H]1O [Compound 13]",
    "Quantitative Result": 2.47
  },
  {
    "Compound": "O=C1c2ccc(O[C@@H]3O[C@H](CO)[C@@H](O)[C@H](O)[C@H]3O)cc2OCC1c1ccc(O)cc1 (stereo partly drawn) [Compound 1]",
    "Quantitative Result": 14.92
  },
  {
    "Compound": "O=c1c(-c2ccc(O)cc2)coc2cc(O)cc(O)c12 [Compound 5, genistein, reference compound]",
    "Quantitative Result": 5.82
  },
  {
    "Compound": "CC1(C)C[C@@H](O)[C@]2(C)CC[C@]3(C)C(=CC[C@@H]4[C@@]5(C)CC[C@H](O[C@@H]6O[C@H](C(=O)O)[C@@H](O)[C@H](O)[C@H]6O[C@@H]6O[C@H](CO)[C@H](O)[C@H](O)[C@H]6O[C@@H]6O[C@H](CO)[C@@H](O)[C@H](O)[C@H]6O)[C@@](C)(CO)[C@@H]5CC[C@]43C)[C@@H]2C1 [Compound 16, reference compound]",
    "Quantitative Result": 7.36
  },
  {
    "Compound": "C[C@@H]1O[C@@H](O[C@H]2[C@H](O[C@H]3[C@H](O[C@H]4CC[C@@]5(C)[C@@H](CC[C@]6(C)[C@@H]5CC=C5[C@@H]7CC(C)(C)C[C@@H](O[C@@H]8O[C@H](CO)[C@@H](O)[C@H](O)[C@H]8O[C@@H]8O[C@@H](C)[C@H](O)[C@@H](O)[C@H]8O)[C@]7(C)CC[C@]56C)[C@]4(C)CO)O[C@H](C(=O)O)[C@@H](O)[C@@H]3O)O[C@H](CO)[C@H](O)[C@@H]2O)[C@H](O)[C@H](O)[C@H]1O [Compound 14]",
    "Quantitative Result": 3.94
  },
  {
    "Compound": "CC1(C)C[C@@H](O)[C@]2(C)CC[C@]3(C)C(=CC[C@@H]4[C@@]5(C)CC[C@H](O[C@@H]6O[C@H](C(=O)O)[C@@H](O)[C@H](O)[C@H]6O)[C@@](C)(CO)[C@@H]5CC[C@]43C)[C@@H]2C1 [Compound 17, reference compound]",
    "Quantitative Result": 9.59
  }
]

We now examine a further compound.
*Q* Item O=C1c2c(O)cc(O[C@@H]3O[C@H](CO)[C@@H](O)[C@H](O)[C@H]3O)cc2OCC1c1ccc(O)cc1 (stereo partly drawn) [Compound 2] with Hs 746 T stomach carcinoma cell line - ED50 Stomach Carcinoma Hs 746 T?
*A* 12.24
